Numbers sourced from ChEMBL document CHEMBL1139596.

- experimentDescription: Half life was determined; 1-2h
- Type: ADME
compounds and their reported half-life
Answer by giving the amount and then stating its unit.

compound: Cc1ccc(C(=O)COC(=O)c2ccc(N3C(=O)CCC3=O)cc2)cc1C
half-life: 2 h

Q. Given the compound Cc1ccc(C(=O)COC(=O)c2ccc(N3C(=O)C4CCC(C)CC4C3=O)cc2)cc1C (configuration not stated) , what is its reported half-life?
A. 2 h

----------
- experimentDescription: Inhibitory activity against metabotropic glutamate receptor 5 (mGluR5)
observable: Ki (nM)
// units = nM; emit number, no label

A selection of reference data follows.
compound: Cc1ccc(C(=O)COC(=O)c2ccc(N3C(=O)C4C5C=CC(C5)C4C3=O)cc2)cc1C (centres undefined)
Ki, nM: 1010
--
compound: O=C(COC(=O)c1ccc(N2C(=O)C3CC=CCC3C2=O)cc1)c1ccc2c(c1)CCCC2 (centres undefined)
Ki, nM: 171
--
compound: COc1ccc(C(=O)COC(=O)c2ccc(N3C(=O)C4CC=CCC4C3=O)cc2)cc1OC (centres undefined)
Ki, nM: 1600
--
compound: Cc1ccc(C(=O)COC(=O)c2ccc(N3C(=O)[C@H]4CCCC[C@H]4C3=O)cc2)cc1C
Ki, nM: 190
--
compound: O=C(COC(=O)c1ccc(N2C(=O)C3CC=CCC3C2=O)cc1)c1ccc(C2CCCCC2)cc1 (centres undefined)
Ki, nM: 18000

Q. So what's the measured Ki for this one? Cc1ccc(C(=O)COC(=O)c2ccc(N3C(=O)C4CC(Br)C(Br)CC4C3=O)cc2)cc1C (centres undefined)
A. 98

Q. Need Ki, item Cc1ccc(C(=O)COC(=O)c2ccc(N3C(=O)C4CC=CCC4C3=O)cc2)cc1C (centres undefined)
A. 172

Q. Report Ki for Cc1ccc(C(=O)COC(=O)c2ccc(N3C(=O)CC(C)CC3=O)cc2)cc1C please.
A. 1840

Q. Fill blank: measured Ki of the compound O=C(COC(=O)c1ccc(N2C(=O)C3CC=CCC3C2=O)cc1)c1ccc2c(c1)OCCO2 (centres undefined) is ____.
A. 2040

----------
- studySystem: Metabotropic glutamate receptor 5 (Homo sapiens)
- experimentDescription: Percent inhibition against metabotropic glutamate receptor 5 (mGluR5) at 10 uM
observable: inhibition

compound: O=C(COC(=O)c1ccc(N2C(=O)C3CC=CCC3C2=O)cc1)c1ccccc1 (stereo not given)
reportedResult: 18%
--
compound: Cc1ccc(NC(=O)c2ccc(N3C(=O)C4CC=CCC4C3=O)cc2)cc1C (stereo not given)
reportedResult: < 35%
--
compound: Cc1ccc(CNC(=O)c2ccc(N3C(=O)C4CC=CCC4C3=O)cc2)cc1C (stereo not given)
reportedResult: < 35%
--
compound: Cc1ccc(NCC(=O)Nc2ccc(N3C(=O)C4CC=CCC4C3=O)cc2)cc1C (stereo not given)
reportedResult: < 35%
--
compound: Cc1ccc(C(=O)NNC(=O)c2ccc(N3C(=O)C4CC=CCC4C3=O)cc2)cc1C (stereo not given)
reportedResult: < 35%
--
compound: Cc1ccc(CNC(=O)Nc2ccc(N3C(=O)C4CC=CCC4C3=O)cc2)cc1C (stereo not given)
reportedResult: < 35%
--
compound: Cc1ccc(C(=O)COC(=O)c2ccc(N3C(=O)C4=C(CCC4)C3=O)cc2)cc1C
reportedResult: 10%
--
compound: Cc1ccc(OCCNC(=O)c2ccc(N3C(=O)C4CC=CCC4C3=O)cc2)cc1C (stereo not given)
reportedResult: < 35%

Q. Tell me the measured inhibition of Cc1ccc(NC(=O)Nc2ccc(N3C(=O)C4CC=CCC4C3=O)cc2)cc1C (stereo not given) , please.
A. < 35%

Q. Param item = Cc1ccc(C(=O)N2CCCN2C(=O)c2ccc(N3C(=O)C4CC=CCC4C3=O)cc2)cc1C (stereo not given) ; retrieve measured inhibition.
A. < 35%

----------
- studySystem: Metabotropic glutamate receptor 5 (Homo sapiens) (UniProt P41594)
- Sequence (P41594 21-1212 limits assumed): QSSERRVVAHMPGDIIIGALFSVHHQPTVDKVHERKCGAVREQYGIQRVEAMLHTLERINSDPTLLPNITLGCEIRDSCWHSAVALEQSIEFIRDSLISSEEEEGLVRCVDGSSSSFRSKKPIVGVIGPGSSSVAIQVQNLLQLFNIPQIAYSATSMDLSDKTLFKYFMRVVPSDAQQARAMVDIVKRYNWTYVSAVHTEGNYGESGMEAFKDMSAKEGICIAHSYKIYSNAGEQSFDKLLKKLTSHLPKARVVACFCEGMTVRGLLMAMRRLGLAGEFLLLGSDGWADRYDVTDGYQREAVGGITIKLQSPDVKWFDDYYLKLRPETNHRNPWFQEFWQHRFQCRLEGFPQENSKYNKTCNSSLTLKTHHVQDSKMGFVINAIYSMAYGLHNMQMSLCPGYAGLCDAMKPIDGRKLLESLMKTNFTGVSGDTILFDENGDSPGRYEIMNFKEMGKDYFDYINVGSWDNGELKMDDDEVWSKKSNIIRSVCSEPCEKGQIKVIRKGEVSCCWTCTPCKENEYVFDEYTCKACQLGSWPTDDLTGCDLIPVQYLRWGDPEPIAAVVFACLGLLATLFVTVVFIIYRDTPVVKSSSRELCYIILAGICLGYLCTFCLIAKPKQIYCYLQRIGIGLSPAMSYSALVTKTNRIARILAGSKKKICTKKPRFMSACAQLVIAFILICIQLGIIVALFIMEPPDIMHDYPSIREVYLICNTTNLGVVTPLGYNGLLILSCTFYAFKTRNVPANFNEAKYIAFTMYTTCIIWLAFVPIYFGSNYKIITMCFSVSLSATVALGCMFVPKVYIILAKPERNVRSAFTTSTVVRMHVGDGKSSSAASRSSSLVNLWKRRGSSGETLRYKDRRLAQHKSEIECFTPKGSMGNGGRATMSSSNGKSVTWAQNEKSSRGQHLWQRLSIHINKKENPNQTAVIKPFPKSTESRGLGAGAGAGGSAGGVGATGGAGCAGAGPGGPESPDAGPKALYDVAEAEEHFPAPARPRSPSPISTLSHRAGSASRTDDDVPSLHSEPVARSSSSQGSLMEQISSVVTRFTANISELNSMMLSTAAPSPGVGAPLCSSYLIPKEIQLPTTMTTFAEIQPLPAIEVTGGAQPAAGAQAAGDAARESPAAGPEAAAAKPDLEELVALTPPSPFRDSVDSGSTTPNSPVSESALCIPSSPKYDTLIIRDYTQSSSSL
- experimentDescription: Percent inhibition against metabotropic glutamate receptor 5 (mGluR5) at 10 uM
inhibition by entry:
The reply should contain only the number, in %.

Solved entries (count: 4):
molecule: O=C(COC(=O)c1ccc(N2C(=O)C3CC=CCC3C2=O)cc1)c1ccc2c(c1)OCO2 (stereo not drawn)
reportedResult: 21
//
molecule: Cc1ccc2c(c1)C(=O)N(c1ccc(C(=O)OCC(=O)c3ccc(C)c(C)c3)cc1)C2=O
reportedResult: 28
//
molecule: Cc1ccc(C(=O)COC(=O)c2ccc(N3CCCC3=O)cc2)cc1C
reportedResult: 38
//
molecule: COc1ccc(C(=O)COC(=O)c2ccc(N3C(=O)C4CC=CCC4C3=O)cc2)cc1 (stereo not drawn)
reportedResult: 39

Turning now to a further molecule:
Q. Consider the molecule shown here: Cc1ccc(C(=O)COC(=O)c2ccc(N3C(=O)c4ccncc4C3=O)cc2)cc1C What is its recorded inhibition?
A. 33

----------
- experimentDescription: Inhibitory activity against metabotropic glutamate receptor 5 (mGluR5)
observable: pKi
Just the number, please; pKi means minus log10 of the concentration in mol/L.

For orientation, consider the following solved cases.
compound: Cc1ccc(C(=O)COC(=O)c2ccc(N3C(=O)[C@@H]4CCCC[C@H]4C3=O)cc2)cc1C
pKi: 6.82
//
compound: O=C(COC(=O)c1ccc(N2C(=O)C3CC=CCC3C2=O)cc1)c1ccc2ccccc2c1 (centres undefined)
pKi: 6.52

Q. What does the data say about its pKi? Entry: Cc1ccc(C(=O)COC(=O)c2ccc(N3C(=O)C4CCC(C)CC4C3=O)cc2)cc1C (centres undefined)
A. 6.95

Q. What does the record list as pKi for O=C(COC(=O)c1ccc(N2C(=O)C3CC=CCC3C2=O)cc1)c1ccc(N2CCOCC2)cc1 (centres undefined) ?
A. 5.47

----------
- experimentDescription: Inhibitory activity against metabotropic glutamate receptor 5 (mGluR5)
pKi: −log10 of the molar value.
Would you mind labelling by pKi? At or over 6 is Y, under is N.

compound: Cc1ccc(C(=O)COC(=O)c2ccc(N3C(=O)C4CC=CCC4C3=O)cc2)cc1 (stereo unspecified)
assignedCategory: N
--
compound: O=C(COC(=O)c1ccc(N2C(=O)C3CC=CCC3C2=O)cc1)c1ccc2c(c1)CCC2 (stereo unspecified)
assignedCategory: Y
--
compound: CC1=CC(=O)N(c2ccc(C(=O)OCC(=O)c3ccc(C)c(C)c3)cc2)C1=O
assignedCategory: N
--
compound: Cc1ccc(C(=O)COC(=O)c2ccc(N3C(=O)CCC3=O)cc2)cc1C
assignedCategory: Y

Q. Confirm if pKi reported for the compound CC1=CCC2C(=O)N(c3ccc(C(=O)OCC(=O)c4ccc(C)c(C)c4)cc3)C(=O)C2C1 (stereo unspecified) is 6 or above.
A. Y

----------
- studySystem: Metabotropic glutamate receptor 5 (Homo sapiens)
- experimentDescription: Percent inhibition against metabotropic glutamate receptor 5 (mGluR5) at 10 uM
The reader will find reported inhibition values listed item by item below.

compound: Cc1ccc(C(=O)CNC(=O)c2ccc(N3C(=O)C4CC=CCC4C3=O)cc2)cc1C (centres undefined)
inhibition: < 35%
--
compound: Cc1ccc(OCCCNC(=O)c2ccc(N3C(=O)C4CC=CCC4C3=O)cc2)cc1C (centres undefined)
inhibition: < 35%
--
compound: Cc1cc2c(cc1C)C(=O)N(NC(=O)c1ccc(N3C(=O)C4CC=CCC4C3=O)cc1)C2=O (centres undefined)
inhibition: < 35%
--
compound: Cc1ccc(NC(=O)NCc2ccc(N3C(=O)C4CC=CCC4C3=O)cc2)cc1C (centres undefined)
inhibition: < 35%
--
compound: Cc1ccc(C(=O)COC(=O)c2ccc(NC(=O)C3CC=CCC3C(=O)O)cc2)cc1C (centres undefined)
inhibition: 34%

Q. Please tell me: inhibition of Cc1ccc(C(=O)COCc2ccc(N3C(=O)C4CC=CCC4C3=O)cc2)cc1C (centres undefined) , system Metabotropic glutamate receptor 5 (Homo sapiens)?
A. < 35%

Q. Find inhibition (Metabotropic glutamate receptor 5 (Homo sapiens)) for the entry CC1(C)CCC(C)(C)c2cc(C(=O)COC(=O)c3ccc(N4C(=O)C5CC=CCC5C4=O)cc3)ccc21 (centres undefined)
A. 32%

Q. Give the reported inhibition for Cc1ccc(C(=O)COC(=O)c2ccc(N3C(=O)COCC3=O)cc2)cc1C (system: Metabotropic glutamate receptor 5 (Homo sapiens)).
A. 41%

Q. inhibition of Cc1ccc(CCNC(=O)c2ccc(N3C(=O)C4CC=CCC4C3=O)cc2)cc1C (centres undefined) on Metabotropic glutamate receptor 5 (Homo sapiens)?
A. < 35%

----------
- studySystem: Metabotropic glutamate receptor 5 (Homo sapiens)
- experimentDescription: Percent inhibition against metabotropic glutamate receptor 5 (mGluR5) at 10 uM
observable: inhibition

compound: Cc1ccc(C2CN(C(=O)c3ccc(N4C(=O)C5CC=CCC5C4=O)cc3)CCO2)cc1C (stereo not drawn)
inhibition: < 35%

compound: Cc1ccc(C(=O)CN(C)C(=O)c2ccc(N3C(=O)C4CC=CCC4C3=O)cc2)cc1C (stereo not drawn)
inhibition: < 35%

Read the next record carefully.
Q. Which inhibition value belongs to Cc1ccc(C(=O)CN2C(=O)c3ccc(N4C(=O)C5CC=CCC5C4=O)cc3C2=O)cc1C (stereo not drawn) ?
A. < 35%
